# TARGET OR TEST SYSTEM: Arginase-2, mitochondrial (Homo sapiens)
# EXPERIMENTAL PROTOCOL: in vitro enzyme assay to detect the production of urea directly proportional to the activity of Arginase II
# Type: functional
# Set-up: scale not given: in the data most compounds retested in dose-response had high values
# SETUP CONDITIONS: 33.3 µM
REPORTED ENDPOINT: Percent Effect (%)

COMPOUND: O=C(CCc1cc2n(n1)CCCN(Cc1ccccc1F)C2)NC1CC1
VALUE: -2.21
//
COMPOUND: CNC(=O)[C@H]1C[C@@H]2CN(C(=O)c3cscn3)C[C@@H]2N1S(C)(=O)=O
VALUE: -27.1
//
COMPOUND: c1cncc(OCc2noc3c2CN(Cc2ccoc2)CC3)c1
VALUE: -2.99
//
COMPOUND: CN(C)CC(=O)N1CCOC2(CCCN(c3ncccc3F)C2)C1 (stereo unspecified)
VALUE: 1.25
//
COMPOUND: CCn1cnnc1CNC(=O)NC(C)c1cccs1 (stereo unspecified)
VALUE: -5.69
//
COMPOUND: COc1ccccc1CNC(=O)N1CCCC(NS(C)(=O)=O)C1 (stereo unspecified)
VALUE: -2.74
//
COMPOUND: Cc1nn(C)c(N2CCOCC2)c1CNCc1ccnc(N(C)C)c1
VALUE: 0.21
//
COMPOUND: Cc1cccc(C(=O)N2CCN(S(C)(=O)=O)[C@@H](C)C2)c1C
VALUE: -2.27
//
COMPOUND: CCC(C)(NCC(=O)Nc1ccccc1)c1nc(C)cs1 (stereo unspecified)
VALUE: 18.6
//
COMPOUND: CCn1cc(CN(C)S(=O)(=O)c2ccc(NC(C)=O)cc2)cn1
VALUE: -15
//
COMPOUND: CC(C)CCNC(=O)c1sccc1N(C)S(=O)(=O)c1ccccc1
VALUE: -3.55
